Reported pIC50 values follow for various molecules
biological target: Dihydrofolate reductase (Homo sapiens); experiment: Inhibition of human recombinant DHFR
Sequence (P00374 whole entry): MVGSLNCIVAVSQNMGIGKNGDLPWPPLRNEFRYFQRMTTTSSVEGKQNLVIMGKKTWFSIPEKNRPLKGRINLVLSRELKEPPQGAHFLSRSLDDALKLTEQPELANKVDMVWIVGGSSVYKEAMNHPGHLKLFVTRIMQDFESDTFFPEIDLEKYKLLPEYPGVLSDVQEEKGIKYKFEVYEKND
pIC50: −log10 of the molar value.

Here are 2 molecules together with their reported answers.
Molecule	pIC50
COc1cc(Cc2cnc(N)nc2N)cc(/C=C/C(=O)N2N=Cc3ccccc3C2C2CCCCC2)c1OC (stereo not drawn)	< 4.72
CCCC1c2ccccc2C=NN1C(=O)/C=C/c1cc(Cc2cnc(N)nc2N)cc(O)c1OC (stereo not drawn)	3.96

Q: Write down the reported pIC50 of COc1cc(Cc2cnc(N)nc2N)cc(/C=C/C(=O)N2N=Cc3ccccc3C2C2CCCC2)c1OC (stereo not drawn) , test system: Dihydrofolate reductase (Homo sapiens).
Ans: < 4.66
